Every entry's value here was drawn from patent US20070156342A1.

target: GRP44 (CRTH2) (Homo sapiens, UniProt Q9Y5Y4)
Sequence (Q9Y5Y4 whole entry): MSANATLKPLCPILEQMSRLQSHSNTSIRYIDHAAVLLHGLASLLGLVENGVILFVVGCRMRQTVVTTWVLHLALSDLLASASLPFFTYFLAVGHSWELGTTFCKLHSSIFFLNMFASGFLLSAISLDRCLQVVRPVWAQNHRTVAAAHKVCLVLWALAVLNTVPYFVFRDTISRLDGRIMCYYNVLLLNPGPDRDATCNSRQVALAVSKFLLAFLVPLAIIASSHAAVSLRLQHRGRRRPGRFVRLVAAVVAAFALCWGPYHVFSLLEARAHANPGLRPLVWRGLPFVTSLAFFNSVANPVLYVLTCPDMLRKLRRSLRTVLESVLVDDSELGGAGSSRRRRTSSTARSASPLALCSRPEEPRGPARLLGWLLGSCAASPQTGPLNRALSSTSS
MEASURED PROPERTY: pIC50
By convention, pIC50 is the negative base-10 log of a molar concentration.

Task: Fill in the blank: the reported pIC50 of CCOc1nc2cccc(C(=O)O)c2n1Cc1ccc(-c2ccccc2-c2nnn[nH]2)cc1 is ____.
Result: 5.68
